- STUDY_SYSTEM: Cdk2(S181C) (C177A) (Homo sapiens, UniProt P24941, C177A/S181C)
- Construct: poly-histidine; made in house; host or cells: E. coli
- TEST_NAME: Kinetic thiol consumption assay with Cdk2 mutant S181C
- Format: binding
- Design: key: rate constant with Cdk2 ÷ rate constant with model thiol (fold)
- CONDITION_LABEL: Cdk2 S181C, additional mutation C177A
MEASUREMENT_TYPE: Rate enhancement, Cdk2 S181C

Solved entries (count: 4):
COMPOUND	STUDY_SYSTEM	MEASUREMENT_TYPE	EXPERIMENTAL_VALUE
C=CC(=O)N1CCCCCC1c1cccnc1 (stereo not shown)	Cdk2(S181C) (C177A) (Homo sapiens, UniProt P24941, C177A/S181C)	Rate enhancement, Cdk2 S181C	0.9519
C=CC(=O)N1CCCC1c1cnc2ccccc2c1 (stereo not shown)	Cdk2(S181C) (C177A) (Homo sapiens, UniProt P24941, C177A/S181C)	Rate enhancement, Cdk2 S181C	1.469
C=CC(=O)Nc1ccc(C(=O)NC2CCCC2)cc1	Cdk2(S181C) (C177A) (Homo sapiens, UniProt P24941, C177A/S181C)	Rate enhancement, Cdk2 S181C	0.3942
C=CC(=O)Nc1ccccc1-c1ccccc1	Cdk2(S181C) (C177A) (Homo sapiens, UniProt P24941, C177A/S181C)	Rate enhancement, Cdk2 S181C	0.7584

a: C=CC(=O)Nc1nc2ccccc2n1CCc1ccccn1
b: C=CC(=O)Nc1ccccc1N1CCOCC1
Which entry has a larger number for Rate enhancement, Cdk2 S181C, a or b ? The response must carry the label of the picked entry.
b

A: C=CC(=O)N1CCN(C(=O)OC(C)(C)C)CC1
B: O=C(CCl)N1CCSc2ccccc21
Smaller Rate enhancement, Cdk2 S181C value? Options are A and B Reply with the label of the item you choose.
B

a: C=CC(=O)Nc1ccccc1C(=O)c1ccccc1
b: C=CC(=O)N(C)C1CC(OCC)C12CCC2 (stereo not shown)
// pick larger Rate enhancement, Cdk2 S181C from pair: a vs b Provide the label of your selected option as the answer.
a

----------
- STUDY_SYSTEM: Cdk2(R122C) (C177A) (Homo sapiens, UniProt P24941, C177A/R122C)
- Construct: poly-histidine; made in house; host or cells: E. coli
- TEST_NAME: Kinetic thiol consumption assay with Cdk2 mutant R122C
- Type: binding
- Set-up: key: rate constant with Cdk2 ÷ rate constant with model thiol (fold)
- CONDITION_LABEL: Cdk2 R122C, additional mutation C177A
MEASUREMENT_TYPE: Rate enhancement, Cdk2 R122C

COMPOUND	Rate enhancement, Cdk2 R122C
C=CC(=O)N(C1CC1)C1CCCCC1C1CCCCC1 (stereo not shown)	0.7099
C=CC(=O)NCc1ccc(-c2csnn2)cc1	0

P: C=CC(=O)Nc1cccc(C(F)(F)F)c1 [EL-1007]
Q: O=S1(=O)C=CC(Br)C1 (stereo not shown)
Returns: the label, P or Q , whose recorded Rate enhancement, Cdk2 R122C is the lower number. Answer by stating the label of the chosen item.
Q

a: C=CC(=O)N1CCN(Cc2noc(C3CC3)n2)CC1
b: C=CC(=O)NC1C2CC3CC(C2)CC1C3 (stereo not shown)
Just curious, which one has the larger Rate enhancement, Cdk2 R122C reading, a or b ? # respond with the chosen item's label
a

a: C=CC(=O)Nc1ccccc1-c1ccccc1
b: C=CC(=O)NCC1CCCN1S(=O)(=O)c1ccc(C)cc1 (stereo not shown)
Returns: the argument ( a or b ) having the larger Rate enhancement, Cdk2 R122C. Mark your answer with the label of the selected entry.
a
(a: 0.6595, b: 0.3071)

I: O=C(CCl)NCCc1c[nH]c2ccccc12
II: C=CC(=O)N1CCC2(CC1)CC2C(=O)OC (stereo not shown)
Between the entries labelled I and II , which has a larger Rate enhancement, Cdk2 R122C value on record? Your answer should be the label of the entry you select.
II
(II: 0.8889, I: 0.5681)

A: C=CC(=O)Nc1cccc2ncccc12
B: C=CC(=O)N1CC2CCCCCCC21 (stereo not shown)
C: C=CC(=O)N(Cc1ccco1)Cc1ccco1
D: C=CC(=O)N1CCCC(N2C(=O)CC3(CCCC3)C2=O)C1 (stereo not shown)
Task for the reader: rank each entry by its Rate enhancement, Cdk2 R122C, from the minimum upward. The response must list the labels following the requested ordering.
D, B, A, C
(D: 0.2009, B: 0.3481, A: 0.6897, C: 2.423)
